B1: Ribonuclease, P00648 (parent)
chain: MMKMEGIALKKRLSWISVCLLVLVSAAGMLFSTAAKTETSSHKAHTEAQVINTFDGVADYLQTYHKLPDNYITKSEAQALGWVASKGNLADVAPGKSIGGDIFSNREGKLPGKSGRTWREADINYTSGFRNSDRILYSSDWLIYKTTDHYQTFTKIR

variants of: B1; conditions: Bacillus amyloliquefaciens; pH 6.3; 25 °C; Urea; Fluorescence; MES 1.00 M; NaCl 613 mM; reversible: yes; structure 1BNI; whole UniProt chain shown
Can you tell me ddG of mutation (higher = less stable) for the items I'm about to list?
The reply should contain only the number, in kcal/mol.

INPUT: Given the variant "Y64A" , write its reported ddG of mutation (higher = less stable).
OUTPUT: 2.26

INPUT: Given the variant "Y60A" , write its reported ddG of mutation (higher = less stable).
OUTPUT: 3.71

INPUT: Given the variant Y60A Y64A , write its reported ddG of mutation (higher = less stable).
OUTPUT: 4.64

INPUT: Given the variant T63S Y64A , write its reported ddG of mutation (higher = less stable).
OUTPUT: 2.39

Reference source for all entries: FireProtDB
